- Experimental target: human OX2R (hOX2R) (Homo sapiens (Human))
- Sequence (O43614 whole entry): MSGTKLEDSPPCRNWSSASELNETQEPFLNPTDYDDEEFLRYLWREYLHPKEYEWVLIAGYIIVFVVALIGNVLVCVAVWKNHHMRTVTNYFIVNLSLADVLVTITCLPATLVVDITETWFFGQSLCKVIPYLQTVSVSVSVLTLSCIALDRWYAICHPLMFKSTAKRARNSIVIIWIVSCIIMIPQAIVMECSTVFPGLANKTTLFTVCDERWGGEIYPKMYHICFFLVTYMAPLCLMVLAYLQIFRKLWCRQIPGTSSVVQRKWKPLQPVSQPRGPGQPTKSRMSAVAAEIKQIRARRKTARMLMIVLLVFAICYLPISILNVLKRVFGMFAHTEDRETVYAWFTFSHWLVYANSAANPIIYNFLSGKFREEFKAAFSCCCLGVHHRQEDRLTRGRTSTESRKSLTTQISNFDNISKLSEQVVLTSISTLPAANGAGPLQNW
- Experimental protocol: Test Example 1-1: Evaluation of activity for OX2R (calcium flux, HEK293 with forced expression)
- Applied conditions: HEK293 cells expressing hOX2R; intracellular calcium; 10 nM OX-A as 100%; up to 1×10^−7 M
- Procedure: HEK293 (human embryonic kidney 293) cells with forced expression of human OX1R (hOX1R) or human OX2R (hOX2R) were seeded in a 384-well microplate (Greiner) at 10,000 per well and cultured for 1 day in high-glucose-DMEM (FujiFilm Corp.—Wako Pure Chemical Industries, Ltd.) containing added 10% FBS (Tenno Scientific) and 1% Penicillin-Streptomycin (FujiFilm Corp.—Wako Pure Chemical Industries, Ltd.). […]
Attribute measured: pEC50
Keep in mind that pEC50 stands for -log10 of concentration in molar terms.

Lookup: Return reported pEC50. Input molecule: CO[C@@H]1CN(c2ncc(F)cn2)CC[C@@H]1[C@@H]1C[C@H]2CC[C@@H](C1)N2[C@@H](C(N)=O)C1CC1 [Example 1]
Found: 9.00

Data origin: patent US11479552B2
